- method.summary: Pharmacokinetics in mouse plasma
- Type: in vivo
- condition.description: female, C57BL/6, ip; 5.2 mg/kg i.p., mouse plasma, Example 1
half-life listing for selected molecules.

CC(C)=CCCCc1ccc(C)cc1O : < 5 min

// next item, half-life requested
Lookup: Requested read-out: half-life. Entry: COc1ccc(C(C)CCC=C(C)C)c(O)c1 (centres unmarked)
Found: 15 min

====

Quick list: concentration at 5 min per entry.
- method.summary: Pharmacokinetics in mouse plasma
- Assay type: in vivo
- condition.description: female, C57BL/6, mouse, plasma, intraperitoneal; 5.2 mg/kg i.p.; read-out: concentration in mouse plasma after 5 minutes
Provide the measurement as a number trailed by its unit.

Lookup: Form field: reported concentration at 5 min of CC(C)=CCCCc1ccc(C)cc1O [P02-113]
Found: 0.4 ng/mL

Lookup: Query (molecule): COc1ccc(C(C)CCC=C(C)C)c(O)c1 (centres unmarked) [P03-97-1] ; field requested: concentration at 5 min
Found: 30 ng/mL
